Can you tell me IC50 for the items I'm about to list?
Target: WRN [UniPro: Q14191 (WRN_HUMAN), N500-C946] (Homo sapiens (Human))
Test: WRN unwinding assay (FORKF DNA, fluorescence)
Assay type: biochemical
Conditions: Table 14

These recorded examples may help you get a feel for the data.
CCc1c(N2CCN(C(=O)NS(=O)(=O)CC)CC2)c(=O)n2nc(C3=CCOCC3)nc2n1CC(=O)Nc1ccc(C(F)(F)F)cc1Cl [Example 25] : < 100 nM
CCc1c(N2CCN(C(=O)c3cnn4ccnc4c3O)CC2)c(=O)n2nc(C3=CCOCC3)nc2n1CC(=O)Nc1ccc(C(F)(F)F)cc1Cl [Example 206] : < 100 nM
CCc1c(N2CCN(C(=O)CNC(=O)c3ccccc3F)CC2)c(=O)n2nc(N3CC(F)(F)C3)nc2n1CC(=O)Nc1ccc(C(F)(F)F)cc1Cl [Example 244] : 100 to 1000 nM
CCc1c(N2CCN(C(=O)CNC(=O)c3ccccc3F)CC2)c(=O)n2nc(OCCOC)nc2n1CC(=O)Nc1ccc(C(F)(F)F)cc1Cl [Example 240] : > 1000 nM
CCc1c(N2CCN(C(=O)CNC(=O)c3ccccc3OC)CC2)c(=O)n2nc(C3=CCOCC3)nc2n1CC(=O)Nc1ccc(C(F)(F)F)cc1Cl [Example 112] : < 100 nM

Dear colleague, could you please provide IC50 for the compounds listed below?
1. CCc1c(N2CCN(C(=O)C(=O)Nc3ccncn3)CC2)c(=O)n2nc(C3=CCOCC3)nc2n1CC(=O)Nc1ccc(C(F)(F)F)cc1F [Example 340]
2. CCc1c(N2CCN(C(=O)Nc3[nH]ncc3C(F)(F)F)CC2)c(=O)n2nc(C3=CCOCC3)nc2n1CC(=O)Nc1ccc(C(F)(F)F)cc1Cl [Example 18]
3. CCc1c(N2CCN(C(=O)CNC(=O)c3ccccc3F)CC2)c(=O)n2nc(C3=CCOCC3)nc2n1CC(=O)Nc1cc(C(F)(F)F)n(C)n1 [Example 162]
4. CCc1c(N2CCN(C(=O)CNC(=O)c3c(O)cccc3F)CC2)c(=O)n2nc(C3=CCOCC3)nc2n1CC(=O)Nc1ccc(C(F)(F)F)cc1Cl [Example 294]
5. CCc1c(N2CCN(C(=O)c3[nH]ncc3C(F)(F)F)CC2)c(=O)n2nc(C3=CCOCC3)nc2n1CC(=O)Nc1ccc(C(F)(F)F)cc1Cl [Example 19]
6. CCc1c(N2CCN(C(=O)CNC(=O)c3cncs3)CC2)c(=O)n2nc(C3=CCOCC3)nc2n1CC(=O)Nc1ccc(C(F)(F)F)cc1Cl [Example 268]

[out]
100 to 1000 nM
100 to 1000 nM
100 to 1000 nM
100 to 1000 nM
> 1000 nM
< 100 nM

---

Target: WRN [UniPro: Q14191 (WRN_HUMAN), N500-C946] (Homo sapiens (Human))
Test: WRN unwinding assay (FORKF DNA, fluorescence)
Type: biochemical
Settings: Table 14
pIC50: −log10 of the molar value.
readoutLabel: pIC50

These recorded examples may help you get a feel for the data.
CCc1c(N2CCN(C(=O)CNC(=O)c3cccs3)CC2)c(=O)n2nc(C3=CCOCC3)nc2n1CC(=O)Nc1ccc(C(F)(F)F)cc1Cl : > 7.00
CCc1c(N2CCN(C(=O)CNC(=O)c3ccccc3F)CC2)c(=O)n2nc(C3=CCOCC3)nc2n1CC(=O)Nc1ccc(S(F)(F)(F)(F)F)cc1C : 6.00 to 7.00
CCc1c(N2CCN(C(=O)CNC(=O)COC)CC2)c(=O)n2nc(C3=CCOCC3)nc2n1CC(=O)Nc1ccc(C(F)(F)F)cc1Cl : > 7.00
CCc1c(N2CCN(C(=O)CNC(=O)c3cc(NC)ccc3F)CC2)c(=O)n2nc(N3CCOCC3)nc2n1CC(=O)Nc1ccc(C(F)(F)F)cc1Cl : > 7.00
CCc1c(N2CCN(C(=O)CNC(=O)c3cc(C)ns3)CC2)c(=O)n2nc(C3=CCOCC3)nc2n1CC(=O)Nc1ccc(C(F)(F)F)cc1Cl : > 7.00

Dear colleague, could you please provide pIC50 for the molecules listed below?
1. CCc1c(N2CCN(C(=O)CNC(=O)c3ccc(F)c(O)c3)CC2)c(=O)n2nc(C3=CCOCC3)nc2n1CC(=O)Nc1ccc(C(F)(F)F)cc1Cl
2. CCc1c(N2CCN(C(=O)c3c(O)nn4c(Cl)cccc34)CC2)c(=O)n2nc(C3=CCOCC3)nc2n1CC(=O)Nc1ccc(C(F)(F)F)cc1Cl
3. CCc1c(N2CCN(C(=O)c3cnn4cccc4c3O)CC2)c(=O)n2nc(C3=CCOCC3)nc2n1CC(=O)Nc1ccc(C(F)(F)F)cc1Cl
4. CCc1c(N2CCN(C(=O)C(=O)Nc3cc(C)no3)CC2)c(=O)n2nc(C3=CCOCC3)nc2n1CC(=O)Nc1ccc(C(F)(F)F)cc1Cl
5. CCc1c(N2CCN(C(=O)CNC(=O)N3CCCC3)CC2)c(=O)n2nc(C3=CCOCC3)nc2n1CC(=O)Nc1ccc(C(F)(F)F)cc1Cl

[out]
1. > 7.00
2. > 7.00
3. > 7.00
4. > 7.00
5. > 7.00

Dear colleague, could you please provide pIC50 for the molecules listed below?
1. CCc1c(N2CCN(C(=O)c3ccn4nc(C)cc4c3O)CC2)c(=O)n2nc(C3=CCOCC3)nc2n1CC(=O)Nc1ccc(C(F)(F)F)cc1Cl
2. CCc1c(N2CCN(C(=O)CNC(=O)c3ccc(Cl)cc3)CC2)c(=O)n2nc(C3=CCOCC3)nc2n1CC(=O)Nc1ccc(C(F)(F)F)cc1Cl
3. CCc1c(N2CCN(C(=O)CNC(=O)Nc3ccccc3F)CC2)c(=O)n2nc(C3=CCOCC3)nc2n1CC(=O)Nc1ccc(C(F)(F)F)cc1Cl
4. CCc1c(N2CCN(C(=O)CNC(=O)c3ccccc3F)CC2)c(=O)n2nc(N3CCOCC3)nc2n1CC(=O)Nc1ccc(C(F)(F)F)cc1Cl

[out]
> 7.00
6.00 to 7.00
> 7.00
> 7.00

---

Can you tell me pIC50 for the items I'm about to list?
Target: WRN [UniPro: Q14191 (WRN_HUMAN), N500-C946] (Homo sapiens (Human), UniProt Q14191)
Sequence (Q14191 500-946): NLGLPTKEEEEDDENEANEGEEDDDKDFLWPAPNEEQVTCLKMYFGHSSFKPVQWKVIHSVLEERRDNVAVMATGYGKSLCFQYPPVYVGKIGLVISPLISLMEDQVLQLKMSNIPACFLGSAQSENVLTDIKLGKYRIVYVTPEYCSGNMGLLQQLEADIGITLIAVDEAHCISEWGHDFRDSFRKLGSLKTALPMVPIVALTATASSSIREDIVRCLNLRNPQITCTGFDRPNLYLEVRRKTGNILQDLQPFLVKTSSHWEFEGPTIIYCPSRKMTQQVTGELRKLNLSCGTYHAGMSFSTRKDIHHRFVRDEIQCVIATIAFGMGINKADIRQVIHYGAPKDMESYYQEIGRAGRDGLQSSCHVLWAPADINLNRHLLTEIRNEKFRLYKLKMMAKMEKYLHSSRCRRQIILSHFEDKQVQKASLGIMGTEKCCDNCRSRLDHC
Experiment: WRN unwinding assay (FORKF DNA, fluorescence)
Format: biochemical
Details: Table 14
pIC50: −log10 of the molar value.

CCc1c(N2CCN(C(=O)c3cnc4[nH]cnc4c3O)CC2)c(=O)n2nc(C3=CCOCC3)nc2n1CC(=O)Nc1ccc(C(F)(F)F)cc1Cl : > 7.00

Dear colleague, could you please provide pIC50 for the compounds listed below?
1. CCNC(=O)C(=O)N1CCN(c2c(CC)n(CC(=O)Nc3ccc(C(F)(F)F)cc3Cl)c3nc(C4=CCOCC4)nn3c2=O)CC1
2. CCc1c(N2CCN(C(=O)CNC(=O)CN3CCCC3)CC2)c(=O)n2nc(C3=CCOCC3)nc2n1CC(=O)Nc1ccc(C(F)(F)F)cc1Cl

[out]
1: 6.00 to 7.00; 2: 6.00 to 7.00

---

Molecular target: WRN [UniPro: Q14191 (WRN_HUMAN), N500-C946] (Homo sapiens (Human), UniProt Q14191)
Assay: WRN unwinding assay (FORKF DNA, fluorescence)
Format: biochemical
Details: Table 14
pIC50: −log10 of the molar value.
Can you tell me pIC50 for the items I'm about to list?

CCc1c(N2CCN(C(=O)CNC(=O)c3ccns3)CC2)c(=O)n2nc(C3=CCOCC3)nc2n1CC(=O)Nc1ccc(C(F)(F)F)cc1F [Example 219] : > 7.00

Dear colleague, could you please provide pIC50 for the compounds listed below?
1. CCc1c(N2CCN(C(=O)CNC(=O)c3ccccc3F)CC2)c(=O)n2nc(C3=CCOCC3)cc2n1CC(=O)Nc1ccc(C(F)(F)F)cc1Cl [Example 343]
2. CCc1c(N2CCN(C(=O)CNC(=O)c3cccc(NC(C)=O)c3)CC2)c(=O)n2nc(C3=CCOCC3)nc2n1CC(=O)Nc1ccc(C(F)(F)F)cc1Cl [Example 278]

[out]
> 7.00
> 7.00

---

Biological target: WRN [UniPro: Q14191 (WRN_HUMAN), N500-C946] (Homo sapiens (Human), UniProt Q14191)
Experiment: WRN ATPase assay (ADP-Glo)
Type: biochemical
Conditions: WRN enzymatic activity assay
pIC50: −log10 of the molar value.
readoutLabel: pIC50

Dear colleague, could you please provide pIC50 for the molecules listed below?
1. CCc1c(N2CCN(C(=O)CNC(=O)c3ccccc3Cl)CC2)c(=O)n2nc(C3=CCOCC3)nc2n1CC(=O)Nc1ccc(C(F)(F)F)cc1Cl
2. CCc1c(N2CCN(C(=O)Nc3[nH]ncc3C(F)(F)F)CC2)c(=O)n2nc(C3=CCOCC3)nc2n1CC(=O)Nc1ccc(C(F)(F)F)cc1Cl
3. CCc1c(N2CCN(C(=O)CNC(=O)c3nc(NC)ccc3F)CC2)c(=O)n2nc(C3=CCOCC3)nc2n1CC(=O)Nc1ccc(C(F)(F)F)cc1Cl
4. CCc1c(N2CCN(C(=O)CNC(=O)c3nccs3)CC2)c(=O)n2nc(C3=CCOCC3)nc2n1CC(=O)Nc1ccc(C(F)(F)F)cc1Cl
5. CCc1c(N2CCN(C(=O)CNC(=O)c3ncco3)CC2)c(=O)n2nc(C3=CCOCC3)nc2n1CC(=O)Nc1ccc(C(F)(F)F)cc1Cl
6. CCc1c(N2CCN(C(=O)CNC(=O)N3CCc4ccccc43)CC2)c(=O)n2nc(C3=CCOCC3)nc2n1CC(=O)Nc1ccc(C(F)(F)F)cc1Cl

[out]
1. > 7.00
2. 6.00 to 7.00
3. > 7.00
4. > 7.00
5. > 7.00
6. > 7.00
